- Tested on: crabgrass, large (large crabgrass, Digitaria sanguinalis)
- Protocol Summary: Test A pre-/postemergence: crabgrass, large
- Format: in vivo
- Measurement Context: Postemergence, 500 g ai/ha; visual rating on 0 to 100 scale (0 no effect, 100 complete control), approximately ten days
Tick Met if Crabgrass, Large plant response rating is 50 or greater. Tick Not met if Crabgrass, Large plant response rating is less than 50.

Some solved cases for reference:
Molecule | Target System | Assigned Label
Cc1nn(-c2ccc(F)cc2)nc1Oc1ccnc(C(F)(F)F)n1 | crabgrass, large (large crabgrass, Digitaria sanguinalis) | Met
Cc1nn(-c2cccc(C(F)(F)F)c2)nc1Oc1cc(C(F)(F)F)nn1C | crabgrass, large (large crabgrass, Digitaria sanguinalis) | Not met
Cc1nn(-c2ccc(C(F)(F)F)cc2)nc1Oc1cccc(OC(F)(F)F)c1 | crabgrass, large (large crabgrass, Digitaria sanguinalis) | Met
CCc1nn(-c2ccc(C(F)(F)F)cc2)nc1Cn1cnc(C(F)(F)F)c1Cl | crabgrass, large (large crabgrass, Digitaria sanguinalis) | Not met
COc1nn(-c2ccc(C(F)(F)F)cc2)nc1Cn1cnc(C(F)(F)F)n1 | crabgrass, large (large crabgrass, Digitaria sanguinalis) | Met
Cc1nn(-c2nc(Cl)ns2)nc1C(=O)c1cccc(C(F)(F)F)c1 | crabgrass, large (large crabgrass, Digitaria sanguinalis) | Not met

QUERY: // inclusive: Crabgrass, Large plant response rating at least 50? input: COc1nn(-c2ccc(C(F)(F)F)cc2)nc1C(C)(O)c1ccnc(C(F)(F)F)c1 (centres unmarked)
RESULT: Not met

QUERY: // inclusive: Crabgrass, Large plant response rating at least 50? input: Cc1nn(-c2ccc(C(F)(F)F)cc2)nc1Cn1cc(C(F)(F)F)nc1Cl
RESULT: Met

QUERY: // inclusive: Crabgrass, Large plant response rating at least 50? input: FC(F)Oc1nn(-c2ccc(C(F)(F)F)cc2)nc1Cc1ccnc(C(F)(F)F)c1
RESULT: Met

====

- Tested on: morningglory (Ipomoea spp.)
- Protocol Summary: Test A pre-/postemergence: morningglory
- Format: in vivo
- Measurement Context: Postemergence, 1000 g ai/ha; visual rating on 0 to 100 scale (0 no effect, 100 complete control), approximately ten days
Measure: Morningglory plant response rating

Compound | Morningglory plant response rating
Cc1nn(-c2ccc(F)cc2)nc1Cn1cnc(C(F)(F)F)n1 [Compound 94] | 100
Cc1nn(-c2ccc(C(F)(F)F)cc2)nc1Cn1ccc(C(F)(F)F)n1 [Compound 117] | 90

QUERY: Recorded Morningglory plant response rating for Cc1nn(-c2ccc(F)cc2)nc1Cn1nc(C(F)(F)F)cc1C [Compound 97] , please?
RESULT: 40

QUERY: Recorded Morningglory plant response rating for Cc1nn(-c2ccc(C(F)(F)F)cn2)nc1Oc1cccc(C(F)(F)F)c1 [Compound 109] , please?
RESULT: 90

QUERY: Recorded Morningglory plant response rating for Cc1nn(-c2ccc(F)cc2)nc1C(=O)c1ccnc(C(F)(F)F)c1 [Compound 167] , please?
RESULT: 100

====

Entries annotated with measured Plant response rating, Foxtail, Giant
- Test system: foxtail, giant (giant foxtail, Setaria faberii)
- Protocol Summary: Test A pre-/postemergence: foxtail, giant
- Assay type: in vivo
- Measurement Context: Preemergence, 125 g ai/ha; 0 to 100 scale where 0 is no effect and 100 is complete control
Just the number, please, no unit attached.

Chemical Smiles | Plant response rating, Foxtail, Giant
Cc1nn(-c2ccc(C(F)(F)F)cc2)nc1Oc1ccnc(C(F)(F)F)c1 | 100

QUERY: Recorded Plant response rating, Foxtail, Giant for FC(F)(F)c1cccc(-n2nc(Oc3ccnc(C(F)(F)F)c3)c(C3CC3)n2)c1 , please?
RESULT: 70

QUERY: Recorded Plant response rating, Foxtail, Giant for Cc1nn(-c2ccc(F)cc2)nc1Oc1cccc(C(F)(F)F)n1 , please?
RESULT: 10

QUERY: Recorded Plant response rating, Foxtail, Giant for Cc1nn(-c2ccc(C(F)(F)F)cn2)nc1C(=O)c1cccc(C(F)(F)F)c1 , please?
RESULT: 90
